For each entry below, report its cell viability value.
tested on: P12-Ichikawa; test: cell viability relative to DMSO control; higher = less cytotoxic; conditions: RPMI 5 mM glucose + 10% dialyzed FBS; 48 h; 0.569 µM
// return numeric value only (unit: %, not printed)

Query: Reported cell viability for `CN(NC(=O)CC(=O)NN(C)C(=S)c1ccccc1)C(=S)c1ccccc1` : what is it?
Reply: 3.2

Query: Reported cell viability for `CNC[C@H](O)c1ccc(O)c(O)c1` : what is it?
Reply: 81.9

Query: Reported cell viability for `CC(C)=CC[C@@H](O)C/1=C/C(=O)C2=C(O)C=CC(=C2C1=O)O` : what is it?
Reply: 118

Query: Reported cell viability for `FC(F)c1nc2ccccc2n1-c1nc(N2CCOCC2)nc(N2CCOCC2)n1` : what is it?
Reply: 75.7

These entries and their values trace back to the supplement of paper PMC11451515.
